MEASUREMENT NOTES: sensitizers of A549 cells to miR-34 induction, primary screen, imaging, A549 dox-inducible miR-34, nuclei and caspase counts (AID 1347080); note: test concentration not given here
CONDITION CONTEXT: A549 miR-34 inducible, Hoechst nuclei count, 48 h; measured here: relative caspase fold change +Dox/-Dox
Label 1 when fold change is strictly below 1; otherwise label -1.

# count of solved cases: 6
# COMPOUND, CATEGORY LABEL
rows = [
    ("CN(C)CC[C@H](c1ccc(Cl)cc1)c1ccccn1", -1),
    ("CC1(C)OC(=O)C(OCC2CC2)=C1c1ccc(S(C)(=O)=O)cc1", 1),
    ("C[C@H]1O[C@@H](O[C@H]2[C@@H](O)C[C@H](O[C@H]3[C@@H](O)C[C@H](O[C@H]4CC[C@]5(C)C6CC[C@]7(C)[C@@H](C8=CC(=O)OC8)CC[C@]7(O)C6CC[C@@H]5C4)O[C@@H]3C)O[C@@H]2C)C[C@H](O)[C@@H]1O (some centres undefined)", -1),
    ("O=C(O)c1cc(O)c2c(c1)[C@@H]([C@H]1c3cc(C(=O)O)cc(O)c3C(=O)c3c(O[C@H]4O[C@H](CO)[C@@H](O)[C@H](O)[C@H]4O)cccc31)c1cccc(O[C@H]3O[C@H](CO)[C@@H](O)[C@H](O)[C@H]3O)c1C2=O", -1),
    ("C[C@@H](c1ncncc1F)[C@](O)(Cn1cncn1)c1ccc(F)cc1F", -1),
    ("Cc1cc(=O)oc2cc(NC(=O)C3CCC(=O)N3)ccc12 (centres undefined)", -1),
]

In: Does FC(F)(F)COCC(F)(F)F have fold change strictly under 1?
Out: 1

In: Queued: Nc1ccn(C2O[C@H](CO)[C@@H](O)[C@@H]2O)c(=O)n1 (some centres undefined)
Out: -1

In: Next entry: Cc1nccnc1N1CCCCC1
Out: 1

In: What do you get for CCOC(=O)C(C)(N)Cc1ccc(O)c(O)c1 (centres undefined) ?
Out: -1

In: // repeat for CN(C)S(=O)(=O)c1ccc2c(c1)/C(=C\CCN1CCNCC1)c1ccccc1S2 and report
Out: -1

In: Try this compound too: CC(=O)NS(=O)(=O)c1ccc(NC(=O)c2ccccc2C(=O)O)cc1
Out: 1

In: Same for CNC[C@@H](O)c1ccc(O)c(O)c1
Out: -1

In: One more compound: C[C@]12CCC3c4ccc(O)cc4CCC3C1CCC2=O (some centres undefined)
Out: -1

----------
MEASUREMENT NOTES: suppressors of polyQ aggregation in yeast, 75Q-TubU reporter (AID 1593)
CONDITION CONTEXT: Yeast 75Q polyglutamine aggregation reporter
Please provide measured score for the entries that follow.

# MOLECULE, MEASURED
measured = [
    ("CCOC(=O)OC(C)OC(=O)C1N2C(=O)C(NC(=O)[C@H](N)c3ccccc3)C2SC1(C)C (some centres not stated)", 1.5),
    ("CCC[C@@H]1C[C@@H](C(=O)N[C@H]([C@H]2O[C@H](SC)[C@H](O)[C@@H](O)[C@H]2O)[C@H](C)O)N(C)C1", 1.23),
    ("O=C(O)CCCCC1SCC2NC(=O)NC21 (configuration not stated)", 1.08),
    ("CN1C2CC[C@@H]1CC(OC(=O)[C@H](CO)c1ccccc1)C2 (some centres not stated)", 1.23),
]

// each listed molecule needs a value for score
1. CO[C@H]1/C=C/O[C@@]2(C)Oc3c(C)c(O)c4c(O)c(c(C=NN5CCN(C)CC5)c(O)c4c3C2=O)NC(=O)/C(C)=C\C=C\C(C)[C@H](O)[C@@H](C)[C@@H](O)[C@@H](C)[C@@H](OC(C)=O)[C@@H]1C (some centres not stated)
2. CC1OC1P(=O)(O)O (configuration not stated)
3. CC(=O)O[C@H]1C(=O)[C@@]2(C)C([C@H](OC(=O)c3ccccc3)[C@]3(O)C[C@H](OC(=O)[C@H](O)[C@@H](NC(=O)c4ccccc4)c4ccccc4)C(C)=C1C3(C)C)[C@]1(OC(C)=O)CO[C@@H]1C[C@@H]2O (some centres not stated)

Out:
1. 1.2
2. 1.42
3. 1.98
